These measurements were taken from ChEMBL document CHEMBL3120114.

Could you please report measured Ki for the items listed next?
# TGT: 5-hydroxytryptamine receptor 1A (Rattus norvegicus, UniProt P19327)
# Sequence (P19327 whole entry): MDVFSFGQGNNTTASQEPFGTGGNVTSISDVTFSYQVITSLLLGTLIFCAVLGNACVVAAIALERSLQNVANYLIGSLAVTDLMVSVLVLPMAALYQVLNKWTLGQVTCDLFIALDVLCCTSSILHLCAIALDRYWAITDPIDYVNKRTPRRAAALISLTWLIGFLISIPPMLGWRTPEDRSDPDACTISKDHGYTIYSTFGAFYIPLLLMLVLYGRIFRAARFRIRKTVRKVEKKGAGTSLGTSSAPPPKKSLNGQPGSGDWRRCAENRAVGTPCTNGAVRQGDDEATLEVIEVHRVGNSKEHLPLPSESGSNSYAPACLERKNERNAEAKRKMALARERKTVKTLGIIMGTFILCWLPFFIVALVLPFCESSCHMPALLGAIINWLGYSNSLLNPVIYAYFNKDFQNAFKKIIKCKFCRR
Numbers only, in nM.

Would you please look over these solved cases?
| STRUCTURE NOTATION | ASSAY ENDPOINT | READOUT UNITS | QUANTITATIVE RESULT |
| --- | --- | --- | --- |
| COc1ccc(N2CCN(CCCCOc3ccc4c5c(c(=O)oc4c3)CCC5)CC2)cc1 | Ki | nM | 1240 |
| O=c1oc2cc(OCCCCN3CCC(c4noc5cc(F)ccc45)CC3)c(Cl)cc2c2c1CCC2 | Ki | nM | 140 |
| COc1ccccc1N1CCN(CCCCOc2ccc3c4c(c(=O)oc3c2)CCCC4)CC1 | Ki | nM | 1120 |
| COc1ccccc1N1CCN(CCCCOc2ccc3c4c(c(=O)oc3c2Cl)CCC4)CC1 | Ki | nM | 157 |
| O=c1oc2cc(OCCCCN3CCN(c4nsc5ccccc45)CC3)ccc2c2c1CCC2 | Ki | nM | 969 |

Batch request: Ki per item, same order as input.
1. Cc1c(OCCCCN2CCC(c3noc4cc(F)ccc34)CC2)ccc2c3c(c(=O)oc12)CCC3
2. O=c1oc2cc(OCCCCN3CCC(c4noc5cc(F)ccc45)CC3)ccc2c2c1CCC2

1: 7.8; 2: 47.5

Answer with reported Ki of O=c1oc2cc(OCCCCCN3CCC(c4noc5cc(F)ccc45)CC3)ccc2c2c1CCC2
1050

* * *

# TGT: D(2) dopamine receptor (Rattus norvegicus, UniProt P61169)
# Sequence (P61169 whole entry): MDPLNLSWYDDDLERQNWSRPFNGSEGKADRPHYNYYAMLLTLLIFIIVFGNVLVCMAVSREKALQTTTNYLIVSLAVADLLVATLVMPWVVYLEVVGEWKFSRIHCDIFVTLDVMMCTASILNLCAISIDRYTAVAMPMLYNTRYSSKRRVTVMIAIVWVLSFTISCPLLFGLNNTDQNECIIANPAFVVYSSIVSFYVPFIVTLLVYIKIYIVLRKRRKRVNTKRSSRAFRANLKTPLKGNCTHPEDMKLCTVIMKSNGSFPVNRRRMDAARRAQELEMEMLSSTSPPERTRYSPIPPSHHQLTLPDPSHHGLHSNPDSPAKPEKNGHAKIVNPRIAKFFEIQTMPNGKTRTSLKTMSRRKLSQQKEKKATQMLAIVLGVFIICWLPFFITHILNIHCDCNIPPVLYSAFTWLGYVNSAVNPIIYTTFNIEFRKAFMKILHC
# EXPERIMENT SUMMARY: Displacement of [3H]spiperone from dopamine D2 receptor in Sprague-Dawley rat striatum homogenate after 30 mins by liquid scintillation counting
Each entry falls in a class defined on Ki; the bands are bottom: < 100 nM; middle: ≥ 100 nM and < 800 nM; top: ≥ 800 nM

Examples with answers:
| STRUCTURE NOTATION | CLASS NAME |
| --- | --- |
| O=c1oc2cc(OCCCCCN3CCC(c4noc5cc(F)ccc45)CC3)ccc2c2c1CCC2 | middle |
| O=c1oc2cc(OCCCCN3CCC(c4noc5cc(F)ccc45)CC3)ccc2c2ccccc12 | top |
| Cc1c(OCCCCN2CCC(c3noc4cc(F)ccc34)CC2)ccc2c3c(c(=O)oc12)CCC3 | bottom |
| O=c1oc2c(Cl)c(OCCCCN3CCC(c4noc5cc(F)ccc45)CC3)ccc2c2c1CCC2 | bottom |
| COc1ccccc1N1CCN(CCCCOc2ccc3c4c(c(=O)oc3c2Cl)CCC4)CC1 | middle |

Hi, small favor: classify COc1ccccc1N1CCN(CCCCOc2ccc3c4c(c(=O)oc3c2)CCC4)CC1 by its Ki when you get a moment.
bottom

Hi, small favor: classify COc1ccccc1N1CCN(CCCCOc2ccc3c4c(c(=O)oc3c2C)CCC4)CC1 by its Ki when you get a moment.
middle

Hi, small favor: classify COc1ccc(N2CCN(CCCCOc3ccc4c5c(c(=O)oc4c3)CCC5)CC2)cc1 by its Ki when you get a moment.
top

Hi, small favor: classify O=c1oc2cc(OCCCCN3CCN(c4ccccc4)CC3)ccc2c2c1CCC2 by its Ki when you get a moment.
top

Hi, small favor: classify O=c1oc2cc(OCCCN3CCC(c4noc5cc(F)ccc45)CC3)ccc2c2c1CCC2 by its Ki when you get a moment.
top

Hi, small favor: classify COc1ccccc1N1CCN(CCCCOc2cc3oc(=O)c4c(c3cc2Cl)CCC4)CC1 by its Ki when you get a moment.
top

Hi, small favor: classify O=c1oc2cc(OCCCCN3CCC(c4nc5ccccc5o4)CC3)ccc2c2c1CCC2 by its Ki when you get a moment.
top
